Data origin, for the record: patent US20140045823A1

Kindly state pEC50 for each of the entries shown.
biological target: human GPR119 (Homo sapiens); construct: expression vector for human GPR119 cDNA (Acc. No. NP_848566); Min-6/hGPR119; assay: AlphaScreen cAMP assay in MIN6 cells stably transfected with human GPR119; settings: Min-6/hGPR119 cells, 45 min at room temperature
Sequence (Q8TDV5 whole entry): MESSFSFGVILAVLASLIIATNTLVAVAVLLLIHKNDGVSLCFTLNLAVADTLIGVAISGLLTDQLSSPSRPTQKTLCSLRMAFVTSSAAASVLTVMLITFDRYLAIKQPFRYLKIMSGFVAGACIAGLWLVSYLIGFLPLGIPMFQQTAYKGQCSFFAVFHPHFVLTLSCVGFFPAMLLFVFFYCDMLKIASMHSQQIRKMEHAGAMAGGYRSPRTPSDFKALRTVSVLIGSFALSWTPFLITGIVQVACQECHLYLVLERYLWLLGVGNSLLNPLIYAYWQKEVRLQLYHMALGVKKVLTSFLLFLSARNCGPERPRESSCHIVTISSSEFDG
To interpret pEC50, take it as minus log10 of a concentration measured in moles per litre.

Return reported pEC50. Input compound: CO[C@@H]1CCN(C(=O)c2ccc(-c3ncc(C(=O)N(C4CC4)C4CCN(C(=O)OC(C)(C)C)CC4)cn3)cc2)C1
6.47

Return reported pEC50. Input compound: COCc1cccc(NC(=O)c2ccc(-c3ncc(C(=O)N(C4CC4)C4CCN(C(=O)OC(C)(C)C)CC4)cn3)cc2F)c1
6.94

Return reported pEC50. Input compound: CC(C)(C)OC(=O)N1CCC(N(C(=O)c2cnc(-c3ccc(C(=O)NCC4CCOC4)c(F)c3)nc2)C2CC2)CC1 (stereo not shown)
6.76

Return reported pEC50. Input compound: CC(C)(C)OC(=O)N1CCC(N(C(=O)c2cnc(-c3ccc(CC(=O)NCc4ccccn4)cc3)nc2)C2CC2)CC1
6.41
